System: Schistosoma mansoni schistosomula (Liberian)
TEST: drug effect (1 - score/DMSO control score) (fraction); higher = more antischistosomal effect, active = 0.5 or more; extreme values may be limits of the assay
CONDITION_NOTES: 24 h; 10 µM
The entries below are paired with their reported drug effect.
MEASURED_PARAMETER: drug effect

[[record]]
line_notation = "Cn1ncc2c(N3CCOCC3)nc(NCCc3c[nH]c4ccccc34)nc21"
measured_parameter = "drug effect"
data_value = 0.45

[[record]]
line_notation = "O=C(NCCc1ccccc1)c1cc(-c2cccnc2)cnc1NCC1CC1"
measured_parameter = "drug effect"
data_value = 0.2

[[record]]
line_notation = "COc1cccc(OCC(=O)c2ccc(Br)cc2)c1"
measured_parameter = "drug effect"
data_value = 0.182

[[record]]
line_notation = "CNC(=O)c1nn(C)c2c1C(C)(C)Cc1cnc(Nc3ccc(N4CCN(C)CC4)cc3)nc1-2"
measured_parameter = "drug effect"
data_value = 0.364

[[record]]
line_notation = "CCn1ncc2c(NC3CCOCC3)c(CNC(=O)c3ccnn3C)c(C)nc21"
measured_parameter = "drug effect"
data_value = 0.05

[[record]]
line_notation = "Cc1cc(NC(=O)c2ccc(Oc3ccc(Cl)cc3O)o2)no1"
measured_parameter = "drug effect"
data_value = 0.1


* * *

Tested on: Schistosoma mansoni schistosomula (NMRI)
TEST: phenotypic severity score (0-4); higher = more antischistosomal effect, active = 2 or more
CONDITION_NOTES: 48 h; 10 µM
Each entry below carries its recorded phenotypic severity score.
MEASURED_PARAMETER: phenotypic severity score

[[record]]
molecule = "O=C(Nc1ccc(F)c(-c2nc3cc(-c4ccccc4)cnc3[nH]2)c1)N1CCCC1"
data_value = 4

[[record]]
molecule = "COc1cccc(-n2nnnc2S(C)(=O)=O)c1"
data_value = 4

[[record]]
molecule = "c1cc(C2=NCCN2)cc(-c2cc(-c3ccc(C4=NCCN4)cc3)no2)c1"
data_value = 0

[[record]]
molecule = "CC1CCCCN1C(=O)NCCc1coc(-c2ccc(F)cc2)n1 (stereo unspecified)"
data_value = 0

[[record]]
molecule = "COc1ccc(-c2nc(-c3cccc(NC(=O)Cc4ccc(F)cc4)c3)no2)cc1OC"
data_value = 0

[[record]]
molecule = "COc1ccc(CCN2CCC(NCc3cccc(N(C)C)c3)CC2)cc1"
data_value = 0

[[record]]
molecule = "CC1(C)Cc2c(c(N3CCOCC3)nc3snc(Br)c23)CO1"
data_value = 0

[[record]]
molecule = "CC(C)(C)CN1C(=O)C(c2ccccc2)(c2ccccc2)N=C1N"
data_value = 0

[[record]]
molecule = "CCN(CC)C(=O)N1CCN(C)CC1"
data_value = 0

[[record]]
molecule = "Cc1cccnc1NC(=O)c1cccc(OCc2c(C)noc2C)c1"
data_value = 0

[[record]]
molecule = "Clc1ccc(CCNc2cc(-c3ccccc3)nc3ncnn23)cc1"
data_value = 1


* * *

System: Schistosoma mansoni schistosomula (LE)
TEST: XTT viability relative to DMSO control; higher = more viable (less active)
CONDITION_NOTES: 72 h; 10 µM
Items are presented alongside their recorded XTT viability.
MEASURED_PARAMETER: XTT viability (%)

[[record]]
molecule = "CC(C)n1nc(-c2cc3c(Cl)cccc3[nH]2)c2c(N)ncnc21"
data_value = 54.3

[[record]]
molecule = "CC1CCCN(C(=O)C(C)Nc2cc(Cl)ccc2N2CCOCC2)C1 (configuration not stated)"
data_value = 137

[[record]]
molecule = "COc1ccc(Nc2ccccc2NC(=O)c2ccc(O)nc2)cc1"
data_value = 176

[[record]]
molecule = "CCCn1nnc(NC(=O)COc2ccc(C3CCCCC3)cc2)n1"
data_value = 89.6

[[record]]
molecule = "Cc1ncc(-c2ccnc(Nc3ccc(S(C)(=O)=O)cc3)n2)n1C(C)C"
data_value = 66.9

[[record]]
molecule = "Cc1cc2ccccc2n1CC(=O)N1CC(C(=O)N2CCCCC2)Oc2ccccc21 (configuration not stated)"
data_value = 71.5

[[record]]
molecule = "COc1ccc(-c2onc(C(F)(F)F)c2-c2ccc(Cl)cc2)c(O)c1"
data_value = 0.0885

[[record]]
molecule = "COC(=O)Nc1nc2cc(C(=O)c3ccccc3)ccc2[nH]1"
data_value = 71.1

[[record]]
molecule = "O=C(Cn1ccnc1[N+](=O)[O-])NCc1ccccc1"
data_value = 89.2

[[record]]
molecule = "CC(=O)Nc1ccc(-c2noc(CC3CCCN(Cc4cccc(F)c4C)C3)n2)cc1 (configuration not stated)"
data_value = 117

[[record]]
molecule = "CCOC(=O)NC(=O)c1ccsc1NC(=O)c1nc2ccccc2s1"
data_value = 134

[[record]]
molecule = "Nc1cccnc1Nc1ccc(Cl)cc1"
data_value = 157

[[record]]
molecule = "CCc1ccc(S(=O)(=O)Nc2cc(CN3CCN(CCC(C)C)CC3)ccc2C)cc1"
data_value = 85.8

[[record]]
molecule = "O=C(Nc1cccnc1)c1c(O)c2cccc3c2n(c1=O)CC3"
data_value = 118

[[record]]
molecule = "Cc1cc(NC(=O)c2ccc(Oc3ccc(Cl)cc3O)o2)no1"
data_value = 99.6

[[record]]
molecule = "COc1ccc(CN2CCOc3ccc(C(C)(O)CN(C)C)cc3C2)cc1C (configuration not stated)"
data_value = 120

[[record]]
molecule = "CC(=O)NCC1CN(c2ccc(-c3ccc(CO)cc3)c(F)c2)C(=O)O1 (configuration not stated)"
data_value = 138

[[record]]
molecule = "CCOC(=O)c1c(NC(=O)c2c(F)c(F)c(F)c(F)c2F)sc(C(N)=O)c1C"
data_value = -3.42

[[record]]
molecule = "O=C(Nc1cnc2ccccc2c1)c1cccc(-n2cnnn2)c1"
data_value = 85.7

[[record]]
molecule = "CCc1nc2ccc(Cl)cn2c1C(=O)NCc1ccc(N2CCC(c3ccc(OC(F)(F)F)cc3)CC2)cc1"
data_value = 66.8

[[record]]
molecule = "c1ccc(Oc2ccc(-c3cc(N4CCNCC4)[nH]n3)cc2)cc1"
data_value = 25.2

[[record]]
molecule = "O[C@@H](c1cc(C(F)(F)F)nc2c(C(F)(F)F)cccc12)[C@H]1CCCCN1"
data_value = -0.139

